# System: Mus musculus
# procedure.summary: Toxicity in ip dosed mouse assessed as optimum dose that providing maximum increase in life span administered qd for 1 to 5 days
# Type: organism-based
# particulars: in vivo

{"columns": ["molecule", "Activity (mg/kg)"],
 "data": [
  ["CCCCCCCCC(=O)N(c1ccc(Nc2c3ccccc3nc3cc([N+](=O)[O-])ccc23)cc1)S(C)(=O)=O", 75],
  ["COc1cc(NS(C)(=O)=O)ccc1Nc1c2ccccc2nc2ccccc12 [AMSACRINE]", 6.7],
  ["COc1cc(N(C(C)=O)S(C)(=O)=O)ccc1Nc1c2ccccc2nc2c(C)cccc12", 7.5],
  ["Br.CCCCCCC(=O)N(c1ccc(Nc2c3ccccc3nc3ccccc23)cc1)S(C)(=O)=O", 150],
  ["Br.CCCCCCCCCCCC(=O)N(c1ccc(Nc2c3ccccc3nc3cc(NC(C)=O)ccc23)cc1)S(C)(=O)=O", 30],
  ["CCCC(=O)N(c1ccc(Nc2c3ccccc3nc3cc(NC(C)=O)ccc23)cc1)S(C)(=O)=O.Cl", 50],
  ["CCCCC(=O)N(c1ccc(Nc2c3ccccc3nc3cc(NC(C)=O)ccc23)cc1)S(C)(=O)=O.Cl", 80],
  ["COc1cc(NS(C)(=O)=O)ccc1Nc1c2ccccc2nc2c(C)cccc12", 6],
  ["Br.CCC(=O)N(c1ccc(Nc2c3ccccc3nc3cc(N)ccc23)cc1)S(C)(=O)=O", 2]
]}

---

Listing of entries alongside the reported Activity.
# Test system: Mus musculus
# procedure.summary: Toxicity in ip dosed mouse assessed as optimum dose that providing maximum increase in life span administered qd for 1 to 5 days
# Format: organism-based
# particulars: in vivo
quantity.name: Activity (mg/kg)

{"columns": ["line.notation", "measurement.target", "quantity.name", "measurement"],
 "data": [
  ["CCCN(C)/N=N/c1ccc2c(Nc3ccc(NS(C)(=O)=O)cc3OC)c3ccccc3nc2c1.CS(=O)(=O)O", "Mus musculus", "Activity", 15],
  ["CN(C)/N=N/c1ccc2c(Nc3ccc(NS(C)(=O)=O)cc3)c3ccccc3nc2c1.Cl", "Mus musculus", "Activity", 8],
  ["CCC(=O)N(c1ccc(Nc2c3ccccc3nc3ccccc23)cc1)S(C)(=O)=O.Cl", "Mus musculus", "Activity", 300],
  ["CCCCCC(=O)N(c1ccc(Nc2c3ccccc3nc3cc(NC(C)=O)ccc23)cc1)S(C)(=O)=O.Cl", "Mus musculus", "Activity", 42],
  ["CCC(=O)N(c1ccc(Nc2c3ccc([N+](=O)[O-])cc3nc3c(C)cccc23)cc1)S(C)(=O)=O", "Mus musculus", "Activity", 50],
  ["CCCCC(=O)N(c1ccc(Nc2c3ccccc3nc3cc(N)ccc23)cc1)S(C)(=O)=O.Cl", "Mus musculus", "Activity", 1],
  ["CC(=O)N(c1ccc(Nc2c3ccccc3nc3cc(N)ccc23)cc1)S(C)(=O)=O.Cl", "Mus musculus", "Activity", 2],
  ["CCCCCCCC(=O)N(c1ccc(Nc2c3ccccc3nc3cc([N+](=O)[O-])ccc23)cc1)S(C)(=O)=O", "Mus musculus", "Activity", 10],
  ["CCCC(=O)N(c1ccc(Nc2c3ccccc3nc3ccccc23)cc1)S(C)(=O)=O.Cl", "Mus musculus", "Activity", 400],
  ["CCCCCC(=O)N(c1ccc(Nc2c3ccccc3nc3cc(N)ccc23)cc1)S(C)(=O)=O.Cl", "Mus musculus", "Activity", 2],
  ["CC(=O)Nc1ccc2c(Nc3ccc(N(C(=O)C(C)C)S(C)(=O)=O)cc3)c3ccccc3nc2c1.Cl", "Mus musculus", "Activity", 50],
  ["CCCCCC(=O)N(c1ccc(Nc2c3ccccc3nc3ccccc23)cc1)S(C)(=O)=O.Cl", "Mus musculus", "Activity", 150],
  ["CCCCCCCC(=O)N(c1ccc(Nc2c3ccccc3nc3ccccc23)cc1)S(C)(=O)=O.Cl", "Mus musculus", "Activity", 400],
  ["CCCCCCC(=O)N(c1ccc(Nc2c3ccccc3nc3cc(N)ccc23)cc1)S(C)(=O)=O.Cl", "Mus musculus", "Activity", 2],
  ["CCCCC(=O)N(c1ccc(Nc2c3ccccc3nc3c(C)cccc23)c(OC)c1)S(C)(=O)=O", "Mus musculus", "Activity", 250],
  ["CCCCCCCC(=O)N(c1ccc(Nc2c3ccccc3nc3cc(N)ccc23)cc1)S(C)(=O)=O.Cl", "Mus musculus", "Activity", 2.5],
  ["CC(=O)N(c1ccc(Nc2c3ccccc3nc3cc([N+](=O)[O-])ccc23)cc1)S(C)(=O)=O", "Mus musculus", "Activity", 50],
  ["CS(=O)(=O)Nc1ccc(Nc2c3ccccc3nc3cc(N)ccc23)cc1", "Mus musculus", "Activity", 2.5]
]}
